Values were extracted from patent US12479895B2.

- Tested on: dopamine neurons
- Measurement Protocol: Survival of TH-positive dopamine neurons in dissociated midbrain floor cultures
- Type: cell-based, mouse
- Experimental Context: Table 3A (FIG. 15), exp2, 10 ng/ml, 5 days
- Excerpt: To study the dopamine neurons (Yu et al., 2008; Yu and Arumae, 2008), the midbrain floors were dissected from the ventral mesencephali of 13.5-d-old NMRI strain mouse embryos. […] Images of each well were scanned by CellInsight™ and immunopositive neurons were counted by CellProfiler and CellProfiler analyst software. Data are expressed as a percentage of GDNF-maintained TH-positive neurons. […]
Binary call on survived neurons as % compared to neurons grown in the presence of GDNF: 1 from 80 % GDNF upward, -1 beneath that.

{"Chain": "KYEKTLDLASVDLRKMRVAELKQILHSWGEECRACAEKTDYVNLIQELAP (listed as Homo sapiens) [pep7]", "Assigned Label": 1}
{"Chain": "TLDLASVDLRKMRVAELKQILHSWGEECRACAEKTDYVNLIQELAPKYAATHPKTEL (listed as Homo sapiens) [pep2]", "Assigned Label": -1}
{"Chain": "VDLRKMRVAELKQILHSWGEECRACAEKTDYVNLIQELAPKYA (listed as Homo sapiens) [pep6]", "Assigned Label": 1}
{"Chain": "VDLRKMRVAELKQILHSWGEECRACAEKTDYVNLIQELAPKYAATHPKTEL (listed as Homo sapiens) [pep5]", "Assigned Label": 1}

Say whether KYEKTLDLASVDLRKMRVAELKQILHSWGEECRACAEKTDYVNLIQELAPKYA (listed as Homo sapiens) [pep3] shows survived neurons as % compared to neurons grown in the presence of GDNF of 80 % GDNF or more.
-1

###

- Tested on: dopamine neurons
- Measurement Protocol: Survival of TH-positive dopamine neurons in dissociated midbrain floor cultures
- Assay type: cell-based, mouse
- Experimental Context: Table 3A (FIG. 15), AVG, 100 ng/ml, 5 days
Listed below: survived neurons as % compared to neurons grown in the presence of GDNF values for each entry.
Please give a number only; it is taken to be in % GDNF.

Worked examples, 5 sequences total:
{"Chain": "VDLRKMRVAELKQILHSWGEECRACAEKTDYVNLIQELAPKYA (listed as Homo sapiens) [pep6]", "Result Unit": "% GDNF", "Assay Result": 73.52}
{"Chain": "KYEKTLDLASVDLRKMRVAELKQILHSWGEECRACAEKTDYVNLIQELAPKYA (listed as Homo sapiens) [pep3]", "Result Unit": "% GDNF", "Assay Result": 74.14}
{"Chain": "VDLRKMRVAELKQILHSWGEECRACAEKTDYVNLIQELAPKYAATHPKTEL (listed as Homo sapiens) [pep5]", "Result Unit": "% GDNF", "Assay Result": 73.84}
{"Chain": "TLDLASVDLRKMRVAELKQILHSWGEECRACAEKTDYVNLIQELAPKYA (listed as Homo sapiens) [pep4]", "Result Unit": "% GDNF", "Assay Result": 70.14}
{"Chain": "KYEKTLDLASVDLRKMRVAELKQILHSWGEECRACAEKTDYVNLIQELAP (listed as Homo sapiens) [pep7]", "Result Unit": "% GDNF", "Assay Result": 72.36}

Note: attention shifts to another entry.
Give survived neurons as % compared to neurons grown in the presence of GDNF only, for TLDLASVDLRKMRVAELKQILHSWGEECRACAEKTDYVNLIQELAPKYAATHPKTEL (listed as Homo sapiens) [pep2] , using dopamine neurons data.
68.98

###

- Test system: dopamine neurons
- Measurement Protocol: Survival of TH-positive dopamine neurons in dissociated midbrain floor cultures
- Assay type: cell-based, mouse
- Experimental Context: Table 3A (FIG. 15), exp1, 1 ng/ml, 5 days
Simple rule here: survived neurons as % compared to neurons grown in the presence of GDNF less than 70 % GDNF is True, otherwise False.

{"Chain": "KYEKTLDLASVDLRKMRVAELKQILHSWGEECRACAEKTDYVNLIQELAPKYA (listed as Homo sapiens) [pep3]", "Assigned Label": "False"}
{"Chain": "VDLRKMRVAELKQILHSWGEECRACAEKTDYVNLIQELAPKYA (listed as Homo sapiens) [pep6]", "Assigned Label": "True"}

Quick check: does TLDLASVDLRKMRVAELKQILHSWGEECRACAEKTDYVNLIQELAPKYAATHPKTEL (listed as Homo sapiens) [pep2] have survived neurons as % compared to neurons grown in the presence of GDNF under 70 % GDNF?
False

Quick check: does KYEKTLDLASVDLRKMRVAELKQILHSWGEECRACAEKTDYVNLIQELAP (listed as Homo sapiens) [pep7] have survived neurons as % compared to neurons grown in the presence of GDNF under 70 % GDNF?
True

Quick check: does TLDLASVDLRKMRVAELKQILHSWGEECRACAEKTDYVNLIQELAPKYA (listed as Homo sapiens) [pep4] have survived neurons as % compared to neurons grown in the presence of GDNF under 70 % GDNF?
True

Quick check: does VDLRKMRVAELKQILHSWGEECRACAEKTDYVNLIQELAPKYAATHPKTEL (listed as Homo sapiens) [pep5] have survived neurons as % compared to neurons grown in the presence of GDNF under 70 % GDNF?
True

###

- Test system: dopamine neurons
- Measurement Protocol: Survival of TH-positive dopamine neurons in dissociated midbrain floor cultures
- Assay type: cell-based, mouse
- Experimental Context: Table 4, AVG, 10 ng/ml; data of Table 3 divided by values of no factor
- Excerpt: To study the dopamine neurons (Yu et al., 2008; Yu and Arumae, 2008), the midbrain floors were dissected from the ventral mesencephali of 13.5-d-old NMRI strain mouse embryos. […] Images of each well were scanned by CellInsight™ and immunopositive neurons were counted by CellProfiler and CellProfiler analyst software. Data are expressed as a percentage of GDNF-maintained TH-positive neurons. […]
Assay Metric: Fold change of survived neurons compared to neurons grown without growth factors (fold)
Please give a number only; it is taken to be in fold.

Worked examples, 5 sequences total:
{"Chain": "VDLRKMRVAELKQILHSWGEECRACAEKTDYVNLIQELAPKYA (listed as Homo sapiens) [pep6]", "Assay Result": 1.23}
{"Chain": "TLDLASVDLRKMRVAELKQILHSWGEECRACAEKTDYVNLIQELAPKYAATHPKTEL (listed as Homo sapiens) [pep2]", "Assay Result": 1.14}
{"Chain": "VDLRKMRVAELKQILHSWGEECRACAEKTDYVNLIQELAPKYAATHPKTEL (listed as Homo sapiens) [pep5]", "Assay Result": 1.23}
{"Chain": "TLDLASVDLRKMRVAELKQILHSWGEECRACAEKTDYVNLIQELAPKYA (listed as Homo sapiens) [pep4]", "Assay Result": 1.14}
{"Chain": "KYEKTLDLASVDLRKMRVAELKQILHSWGEECRACAEKTDYVNLIQELAPKYA (listed as Homo sapiens) [pep3]", "Assay Result": 1.20}

Note: attention shifts to another entry.
Give recorded Fold change of survived neurons compared to neurons grown without growth factors. KYEKTLDLASVDLRKMRVAELKQILHSWGEECRACAEKTDYVNLIQELAP (listed as Homo sapiens) [pep7]
1.23

###

Listed below: survived neurons as % compared to neurons grown in the presence of GDNF values for each entry.
- Tested on: dopamine neurons
- Measurement Protocol: Survival of TH-positive dopamine neurons in dissociated midbrain floor cultures
- Format: cell-based, mouse
- Experimental Context: Table 3A (FIG. 15), exp2, 1000 ng/ml, 5 days
Please give a number only; it is taken to be in % GDNF.

Worked examples, 3 sequences total:
{"Chain": "VDLRKMRVAELKQILHSWGEECRACAEKTDYVNLIQELAPKYA (listed as Homo sapiens) [pep6]", "Result Unit": "% GDNF", "Assay Result": 67.06}
{"Chain": "VDLRKMRVAELKQILHSWGEECRACAEKTDYVNLIQELAPKYAATHPKTEL (listed as Homo sapiens) [pep5]", "Result Unit": "% GDNF", "Assay Result": 58.84}
{"Chain": "KYEKTLDLASVDLRKMRVAELKQILHSWGEECRACAEKTDYVNLIQELAP (listed as Homo sapiens) [pep7]", "Result Unit": "% GDNF", "Assay Result": 86.37}

Give recorded survived neurons as % compared to neurons grown in the presence of GDNF. TLDLASVDLRKMRVAELKQILHSWGEECRACAEKTDYVNLIQELAPKYAATHPKTEL (listed as Homo sapiens) [pep2]
52.95

Give recorded survived neurons as % compared to neurons grown in the presence of GDNF. KYEKTLDLASVDLRKMRVAELKQILHSWGEECRACAEKTDYVNLIQELAPKYA (listed as Homo sapiens) [pep3]
80.59

Give recorded survived neurons as % compared to neurons grown in the presence of GDNF. TLDLASVDLRKMRVAELKQILHSWGEECRACAEKTDYVNLIQELAPKYA (listed as Homo sapiens) [pep4]
83.39
